Provenance of the data: patent US20210275683A1

Entries and their EC50 values follow.
# target.or.test.system: T1, Nectin-4 on MDA-MB-175-VII tumor cells (UniProt Q96NY8 32-510, limits assumed)
# T1 construct: whole, on cells
# T1 sequence (looked up): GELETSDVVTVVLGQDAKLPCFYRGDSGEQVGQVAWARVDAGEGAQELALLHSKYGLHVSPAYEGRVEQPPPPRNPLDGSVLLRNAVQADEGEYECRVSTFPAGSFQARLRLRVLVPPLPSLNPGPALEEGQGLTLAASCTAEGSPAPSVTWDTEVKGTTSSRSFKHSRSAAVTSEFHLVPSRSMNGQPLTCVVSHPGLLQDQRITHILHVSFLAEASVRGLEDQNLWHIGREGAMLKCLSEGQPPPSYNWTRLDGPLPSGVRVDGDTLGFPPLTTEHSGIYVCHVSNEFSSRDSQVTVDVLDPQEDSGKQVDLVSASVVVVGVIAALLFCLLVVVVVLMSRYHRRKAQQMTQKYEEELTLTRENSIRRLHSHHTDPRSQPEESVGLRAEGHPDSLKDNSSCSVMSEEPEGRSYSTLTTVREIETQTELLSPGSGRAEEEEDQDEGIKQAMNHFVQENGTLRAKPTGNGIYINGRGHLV
# method.notes: flow cytometry on MDA-MB-175-VII cells (Nectin-4 expressing tumor cell line), anti-huIgG1-PE secondary, MFI (Geo Mean)
The figure you give is taken to be in ng/mL; do not add the unit.

What does the record list as EC50 for hzD6.1C-Compound 2.14 (anti-Nectin-4-TLR8 agonist immunoconjugate) (antibody, V domains shown, hzD6.1C conjugated to linker-TLR8 agonist Compound 2.14) VH: EVQLVESGGGLVQPGGSLRLSCAASGFTFSNYDMSWVRQAPGKGLEWVATISSGGSYTYYVDSVKGRFTISRDNAKNSLYLQMNSLRAEDTAVYYCARQELGSYYAMDYWGQGTTVTVSS VL: DVVMTQTPLSLPVTPGEPASISCRSSQSIVHSNGNTYLEWYLQKPGQSPQLLIYKVSNRFSGVPDRFSGSGSGTDFTLKISRVEAEDVGVYYCFQGSHVPYTFGGGTKVEIKR ? 8.6

***
# input binder: humanized D6C mAb with hzD6.1C VL (I2V), human IgG1 / human kappa (antibody, V domains shown, also called hzD6.IC) VH: EVQLVESGGGLVQPGGSLRLSCAASGFTFSNYDMSWVRQAPGKGLEWVATISSGGSYTYYVDSVKGRFTISRDNAKNSLYLQMNSLRAEDTAVYYCARQELGSYYAMDYWGQGTTVTVSS VL: DVVMTQTPLSLPVTPGEPASISCRSSQSIVHSNGNTYLEWYLQKPGQSPQLLIYKVSNRFSGVPDRFSGSGSGTDFTLKISRVEAEDVGVYYCFQGSHVPYTFGGGTKVEIKR ; wanted: its EC50 9.7
